experimentalSystem: Gal(a1-3)Gal(b1-4)[Fuc(a1-3)]GlcNAc(b1-2)Man(a1-3)[Gal(a1-3)Gal(b1-4)[Fuc(a1-3)]GlcNAc(b1-2)Man(a1-6)]Man(b1-4)GlcNAc(b1-4)GlcNAc
experiment: glycan array binding signal (z-score within array); higher = stronger binding
conditionSummary: glycan notation: IUPAC condensed, linker removed
This excerpt belongs to a sample that is enriched for the strongest signals.
endpoint: glycan array binding signal (z-score)
In your answer, state the number alone without any accompanying words.

Incoming: Bench note: what glycan array binding signal (z-score) did StdA (Salmonella typhimurium), Q8Z3Z0 (protein) MAAAGMMYGASVFAADTTPTAGPFGSGKILFTGTITNSPCDIAPGDDAITVPFGQISYRKLNTANATTDSKPFTIHLQNCAFDPNETTIAGSAGKMSKVTVSFSGTADTSGKAYVSTGSAQHVGVQLLKGDNTSLITPNTPMPDGDAQQLQAGNNELNFFARLIALTDAATPGDVNASVTYTLKYL show?
Outgoing: 4.97

Incoming: One more binder: CV-2L (Chromobacterium violaceum), Q7NX84 (protein) MAQQGVFTLPARINFGVTVLVNSAATQHVEIFVDNEPRAAFSGVGTGDNNLGTKVINSGSGNVRVQITANGRQSDLVSSQLVLANKLNLAVVGSEDGTDMDYNDSIVILNWPLG
Outgoing: -0.319

Incoming: One more binder: SRS6 (Toxoplasma gondii), Q9NH12 (protein) MARTGSMQQRRGGFQTTARMLMAVCVSGVLLLSSGPSSANKLTEGQQNQNSGPGAATQEGPTIEGAVAKCVLKTTAAENGSSRAKNTTGLTLSKENLVVSLQCSGEKNAIVPKDQKKVCSAAPNAKVADCKGADTDKQVTLKSLLGTSGDIQWEKTIVSTDNKGEVMTLKIKESELPLFDKAFFVGCEEDKAQTRTSQATECKVNVSVKARPSTVGENNVVTCAYGKDSNPRPLEVEMSADNDTLTIDCGTDGSLKPTKYTEEFCVTDNSQLESCTTKKFSEILPTFLPSWWVSDSQNGSAKLTIPESGFPEEQQQFRLGCVPKKTTQSPQANPSVKTEKEEGAQNTDASTSNCSVIVTVKASNFSSLASSIAPTAAVAGGAAALTGFLVGSF
Outgoing: 0.436

Incoming: One more binder: Eosinophil-derived neurotoxin (EDN) (Homo sapiens), P10153 (protein) MVPKLFTSQICLLLLLGLLAVEGSLHVKPPQFTWAQWFETQHINMTSQQCTNAMQVINNYQRRCKNQNTFLLTTFANVVNVCGNPNMTCPSNKTRKNCHHSGSQVPLIHCNLTTPSPQNISNCRYAQTPANMFYIVACDNRDQRRDPPQYPVVPVHLDRII
Outgoing: 0.387

Incoming: One more binder: FedF (Escherichia coli), Q47212 (protein) MRLKYILIIPLLLISLSVFASTLQVDKSVSYDWINSSASSAQVTGTLLGTGKTNTTQMPALYTWQHQIYNVNFIPSSSGTLTCQAGTILVWKNGRETQYALECRVSIHHSSGSINESQWGQQSQVGFGTACGNKKCRFTGFEISLRIPPNAQTYPLSSGDLKGSFSLTNKEVNWSASIYVPAIAKSYRLDTSITLPDTVNLKQNQATPVYYTFSAPSVSNTITGIPNQNDMPSSNVKLTIGPIQSKTTALYVQPDATGSWYDLSKSITMTVVKSSMLNFKGINAKPGNVTLSVPIVFEIQ
Outgoing: -0.084

Incoming: One more binder: Epa19 (Candida glabrata) (protein) MGSSHHHHHHSSGLVPRGSHMASSKDPTRFPIGCSPQVLKTQPGLAVKLYSYGHPVPGCSYITYQYPDFPRSGYKKERKLADITGVNGKIDIDLKPNDPCRVLTGHLPSNYNYPDTLTYTNFTMILYGYFQPKVTGYHTFNLEADDLLFMNLGAGNAFDCCKAESTLDNFGNYQSYSLWGSDYAKANITVFLVSGVYYPIRLFYVNRDNNAVIDFSFTTEFDKEKVHDFTSYFFSASDGEQCPGSV
Outgoing: 2.47
